- Test system: dengue virus type 2
- protocol.summary: Inhibition of Dengue virus serotype 2 NS2B-NS3 protease using benzoyl-Nle-Lys-Arg-Arg-AMC as substrate assessed as remaining activity at 20 uM incubated for 3 mins followed by substrate addition by fluorescence spectrophotometric analysis relative to control
Residues, ends and D or L forms follow the SMILES beside them. *: point of attachment. Pbf = Cc1c(C)c(S(=O)(=O)*)c(C)c2c1OC(C)(C)C2; pNA = O=[N+]([O-])c1ccc(N*)cc1; Boc = CC(C)(C)OC(=O)*
assay.metric: Activity
Report field: quantity (unit follows the number).

COc1ccc(CN[C@@H](CCSC)C(=O)N2CCC[C@H]2C(=O)Nc2ccc([N+](=O)[O-])cc2)cc1 = 90%
CSCC[C@H](NCc1ccc([N+](=O)[O-])cc1)C(=O)N1CCC[C@H]1C(=O)Nc1ccc([N+](=O)[O-])cc1 = 38%
CSCC[C@H](N)C(=O)N1CCC[C@@H]1C(=O)Nc1ccc([N+](=O)[O-])cc1 = 71%

Okay, now this compound:
Record Cc1c(C)c(S(=O)(=O)NC(=N)NCCC[C@H](NC(=O)OC(C)(C)C)C(=O)N2CCC[C@H]2C(=O)Nc2ccc([N+](=O)[O-])cc2)c(C)c2c1OC(C)(C)C2 (Boc-Arg(Pbf)-Pro-pNA) , field Activity: 90%

---

- System: dengue virus type 2
- protocol.summary: Inhibition of Dengue virus serotype 2 NS2B-NS3 protease using benzoyl-Nle-Lys-Arg-Arg-AMC as substrate assessed as remaining activity at 20 uM incubated for 3 mins followed by substrate addition by fluorescence spectrophotometric analysis relative to control
Non-standard residues stand in square brackets, D forms with d. Residues, ends and D or L forms follow the SMILES beside them. *: point of attachment. Pbf = Cc1c(C)c(S(=O)(=O)*)c(C)c2c1OC(C)(C)C2; Met(O2) = CS(=O)(=O)CC[C@H](N)C(=O)O; Met(O) = CS(=O)CC[C@H](N)C(=O)O; pNA = O=[N+]([O-])c1ccc(N*)cc1
Here the recorded Activity is given for each entry.
Write down the numeric answer in % and omit the unit.

Consider the following illustrative entries.
CSCC[C@H](N)C(=O)N1CCC[C@H]1C(=O)Nc1cccc([N+](=O)[O-])c1 = 37
CS(=O)(=O)CC[C@H](N)C(=O)N1CCC[C@H]1C(=O)Nc1ccc([N+](=O)[O-])cc1 (H-[Met(O2)]-Pro-pNA) = 103
C[S+]([O-])CC[C@H](N)C(=O)N1CCC[C@H]1C(=O)Nc1ccc([N+](=O)[O-])cc1 (stereo partly specified) (H-[Met(O)]-Pro-pNA) = 99
CSCC[C@H](N)C(=O)N1CCC[C@H]1C(=O)Nc1ccccc1[N+](=O)[O-] = 96
Cc1c(C)c(S(=O)(=O)NC(=N)NCCC[C@H](N)C(=O)N2CCC[C@H]2C(=O)Nc2ccc([N+](=O)[O-])cc2)c(C)c2c1OC(C)(C)C2 (H-Arg(Pbf)-Pro-pNA) = 106

Record N=C(N)NCCC[C@H](N)C(=O)N1CCC[C@H]1C(=O)Nc1ccc([N+](=O)[O-])cc1 (H-Arg-Pro-pNA) , field Activity: 93
